# System: HOP-92 NSCLC
# Test method notes: NCI tumour cell line growth inhibition, 48 h
Record satisfied whenever TGI is at 40 µM or higher; record not satisfied when lower.

{"columns": ["Molecule", "Label value"],
 "data": [
  ["CCOC(=O)N1CCC(=O)C[C@@H]1C/C=C/P1(=O)O[C@H](c2ccccc2)C(C)N1C(C)C (some centres undefined)", "satisfied"],
  ["C1=c2ccccc2=C2C(=C(c3ccccc3)C(c3ccccc3)=NN2c2ccccc2)S1", "satisfied"],
  ["CC(=O)/C=C/C1=C(c2ccsc2)c2ccccc2CC1", "satisfied"],
  ["O=C(/N=C/c1c(O)c2ccccc2oc1=O)NC1CCCCC1", "satisfied"],
  ["COc1cccc(Nc2nccc(Nc3ccc4[nH]ncc4c3)n2)c1", "not satisfied"],
  ["CCC[CH2][Sn]1([CH2]CCC)[O]C(=O)c2cc(C)ccc2[O]1", "not satisfied"],
  ["CCNCCNc1cc(-c2cccc(C(F)(F)F)c2)c(C#N)c2nc3ccccc3n12", "not satisfied"],
  ["CCCCOc1ccc(S(=O)(=O)/N=C(\\NN)Nc2ccc(Cl)cc2)cc1", "satisfied"],
  ["COC(=O)CCc1ccc2c(c1)CC1(C2)Cc2ccc3c(c2C1)CCC3 (centres undefined)", "satisfied"],
  ["O=C1N[C@@H]2c3c(Br)sc(Br)c3C(=O)[C@@H]2N1", "not satisfied"],
  ["CCCCCn1cnc2c1S(=O)(=O)N(C)C(NC(=O)c1ccccc1)=N2", "satisfied"],
  ["C=C1CO[C@@H]2C[C@@H]1CC/C(C)=C/CC/C(C)=C/CC[C@@]2(C)O", "satisfied"],
  ["CC1OC(OC2C(O[C@@H]3C[C@@H]4CC[C@@H]5[C@H](CC[C@]6(C)[C@@H]7[C@H](C[C@@H]56)O[C@]5(CC[C@@H](C)CO5)[C@H]7C)[C@@]4(C)C[C@H]3O)OC(CO)C(OC3OC(CO)C(O)C(O)C3O)C2O)C(O)C(O)C1O (some centres undefined)", "not satisfied"],
  ["CC(C)c1cccc(C(C)C)c1NC1=CC(=O)C(=O)c2ccccc21", "satisfied"],
  ["Cc1cc(=O)[nH]c(CNC(=O)Cc2ccccc2)n1", "satisfied"],
  ["O=C1CSC(/C=C/c2ccccc2)N1c1ccc(-n2c(-c3ccccc3)nc3ccccc3c2=O)cc1 (centres undefined)", "satisfied"],
  ["CC(C)Cc1cccc(C(C)C)c1NC(=O)CCC(=O)N/N=C1\\C(=N/NC(=O)CCC(=O)Nc2c(C(C)C)cccc2C(C)C)C(c2ccc3c(c2)OCO3)Oc2ccccc21 (centres undefined)", "satisfied"],
  ["COc1ccc2c(c1)c1c3c(ccc4ncn2c43)N(CCN(C)C)CCN=1", "not satisfied"],
  ["Cc1cc(C)c(NS(=O)c2cccc([N+](=O)[O-])c2)c(C)c1 (centres undefined)", "satisfied"]
]}

----------
# Test system: K-562 leukemia
# Test method notes: NCI tumour cell line growth inhibition, 48 h
Let's look at some compounds and their measured TGI.

{"columns": ["Compound", "TGI"],
 "data": [
  ["N#CC(c1ccccc1)N(CCc1ccccc1)C(=O)Oc1ccccc1 (stereo not given)", "> 100 µM"],
  ["CCCOCN1COCN=C1NC#N", "> 100 µM"],
  ["C[C@@H]1CN2[C@H]3[C@@H]1CC[C@]31CCC(=O)O[C@]1(C)[C@@H]1CC[C@H]3CCC=C3[C@@H]12", "> 70 µM"],
  ["O=C(Nc1ccc(F)cc1)c1cc2ccc(O)cc2oc1=Nc1ccccc1F", "> 100 µM"],
  ["CN(CC#N)C(=O)Cc1ccc([N+](=O)[O-])cc1", "> 10 µM"],
  ["COc1ccc(-n2sc(=O)n(Cc3ccc(COC(=O)C(C)c4ccc(CC(C)C)cc4)cc3)c2=O)cc1 (stereo not given)", "10.4 µM"],
  ["COc1c2ccoc2c(S(=O)(=O)Nc2ccc(Cl)cc2)c2oc(C)cc(=O)c12", "> 100 µM"],
  ["FC(F)(F)C1(C(F)(F)F)C2CCC3(CC(F)(F)C(F)(F)S3)C1C2 (stereo not given)", "> 100 µM"],
  ["O=C1N[C@@H]2c3c(Br)sc(Br)c3C(=O)[C@@H]2N1", "> 100 µM"],
  ["CC(C)(C)C[P+](C)(C)c1ccccc1", "> 100 µM"],
  ["COc1cccc2c1C(=O)c1c(O)c3c(c(O)c1C2=O)C[C@@](O)(/C(C)=N/NC(=O)c1ccc(Cl)c(Cl)c1)C[C@@H]3OC1CC(N)C(O)C(C)O1 (stereo not given in full)", "1.06 µM"],
  ["O=C1CSC(/C=C/c2ccccc2)N1c1ccc(-n2c(-c3ccccc3)nc3ccccc3c2=O)cc1 (stereo not given)", "> 100 µM"],
  ["COc1cccc(/C=C2\\C(=O)N(C(=O)Cc3ccccc3)N=C2C)c1", "> 100 µM"],
  ["CC(=O)N[C@@H](Cc1ccc(OP(=O)(O)O)cc1)C(=O)N[C@H]1CCC(=O)N2CCC[C@@H](C(=O)NCc3ccc(O)cc3)N2C1=O", "> 25 µM"],
  ["COc1ccc(C(=O)c2ccc(-n3c4ccccc4c4ccc5c(c43)C(=O)C=CC5=O)cc2)cc1", "> 100 µM"],
  ["O=C1c2ccccc2C(=O)c2sc(Nc3ccc(Cl)c(Cl)c3)nc21", "17.9 µM"],
  ["CC1=NN(c2ccccc2)C(=O)C1=C1SCCCS1", "47.6 µM"],
  ["C[C@H](O)C(=O)SC[C@H](NC(=O)CC[C@@H](N)C(=O)O)C(=O)NCC(=O)O", "> 100 µM"],
  ["CN1CCN(c2ccc3nc4c(nc3c2C(F)(F)F)C(=O)c2ncccc2C4=O)CC1", "7.75 µM"],
  ["C[C@@H](Oc1cc(-c2cnn(C3CC4(CCCNC4)C3)c2)cnc1N)c1c(Cl)ccc(F)c1Cl (stereo not given in full)", "1.41 µM"]
]}

----------
# Tested on: UACC-62 melanoma
# Test method notes: NCI tumour cell line growth inhibition, 48 h
Let's look at some compounds and their measured TGI.
Recorded endpoint: TGI (µM)

{"columns": ["Compound", "Tested on", "Recorded endpoint", "Result qualifier", "Recorded number"],
 "data": [
  ["CC(C)(C)c1cc(C(C)(C)C)c2sc(=S)oc2c1O", "UACC-62 melanoma", "TGI", "=", 23.4],
  ["COC(=O)c1ccc(NCc2cc(O)ccc2O)cc1O", "UACC-62 melanoma", "TGI", "=", 34],
  ["CCc1oc2ccc(OC)c3c2c1C=CC=C3", "UACC-62 melanoma", "TGI", ">", 100],
  ["FC(F)(F)C1=NC(=NNc2nnc(-c3ccccc3)c(-c3ccccc3)n2)N=C(C(F)(F)F)C1", "UACC-62 melanoma", "TGI", "=", 30],
  ["O=C1CCC(=O)C(C(=O)CCC(=O)Nc2cccc(Cl)c2)C1 (configuration not stated)", "UACC-62 melanoma", "TGI", ">", 100],
  ["N#CC(C#N)=Cc1ccc(-c2ccc(-c3nc4ccccc4o3)cc2)o1", "UACC-62 melanoma", "TGI", ">", 100],
  ["CO[C@@]12CC(=O)/C(=C(O)\\C=C\\c3ccccc3)C(=O)[C@]1(OC)Cc1ccccc1O2", "UACC-62 melanoma", "TGI", "=", 52.3],
  ["Cc1cc(=O)[nH]c(CNC(=O)Cc2ccccc2)n1", "UACC-62 melanoma", "TGI", ">", 100],
  ["CCCCOc1ccc(S(=O)(=O)/N=C(\\NN)Nc2ccc(Cl)cc2)cc1", "UACC-62 melanoma", "TGI", ">", 100],
  ["c1ccc2nc3cc4c(cc3nc2c1)NC12CCCCC1CC1=C(CCCC1)N42 (configuration not stated)", "UACC-62 melanoma", "TGI", "=", 9.63],
  ["COC(=O)/C(=C\\C(=O)c1ccc(Br)cc1)NN=C(c1ccccc1)c1ccccc1", "UACC-62 melanoma", "TGI", ">", 10],
  ["CCC[CH2][Sn]1([CH2]CCC)[O]C(=O)c2cc(C)ccc2[O]1", "UACC-62 melanoma", "TGI", "=", 1.56],
  ["O=C(Nc1ccc(F)cc1)c1cc2ccc(O)cc2oc1=Nc1ccccc1F", "UACC-62 melanoma", "TGI", ">", 100],
  ["O=c1[nH]c2c(O)cccc2c2cc3c(c(O)c12)OCO3", "UACC-62 melanoma", "TGI", "=", 71.3],
  ["COCC12CC(CC1=O)C1C2ON2c3ccccc3C(=O)C12c1ccccc1 (configuration not stated)", "UACC-62 melanoma", "TGI", ">", 100],
  ["COC(=O)c1cc(C)n(NC(=O)OC(C)(C)C)c1C", "UACC-62 melanoma", "TGI", ">", 100],
  ["O=S(Cc1cc2c(cc1Br)OCO2)c1ccccc1 (configuration not stated)", "UACC-62 melanoma", "TGI", ">", 100],
  ["COc1ccc2c(c1)CC[C@@H]1[C@@H]2CC[C@]2(C)[C@@H](O)/C(=C/c3ccncc3)C[C@@H]12", "UACC-62 melanoma", "TGI", "=", 29.6],
  ["COc1ccc(-n2cc(-c3ccc(OC)c(OC)c3)nc2SCc2ccccc2)cc1Cl", "UACC-62 melanoma", "TGI", ">", 100],
  ["Oc1ccc2ccccc2c1Cc1c(O)ccc2ccccc12", "UACC-62 melanoma", "TGI", "=", 29.4],
  ["N#CSCC(=O)c1ccc(Cl)cc1", "UACC-62 melanoma", "TGI", "=", 21.5],
  ["CC(=O)NNc1nc(C)c(C(/C=C/c2ccc(NC(C)=O)cc2)=N/NS(=O)(=O)c2ccc(C)cc2)s1", "UACC-62 melanoma", "TGI", ">", 100]
]}

The reported numbers originate from PubChem BioAssay (NCI).
